Source listed as patent US6573247B1.

For each entry below, report its CC50 value.
System: human embryonic lung fibroblast (HEL) cells
PROTOCOL NOTES: CC50 in tissue culture assay
Format: cell-based
Method: Each of the products of Examples 1, 2, 3 and 4 was tested in vitro in tissue culture assays for potent antiviral action with respect to varicella zoster virus (VZV). Acyclovir was included in the test procedure as a control. VZV (strains OKa and YS) induced cytopathogenicity in human embryonic lung fibroblast (HEL) cells was measured 7 days post infection. EC50 was defined as the drug concentration (in μM) required to reduce virus-induced cytopathicity by 50%. […]

Noted for Nc1nc2c(ncn2COC(CO)CO)c(=O)[nH]1 [DHPG, dihydroxypropyl guanine, reference compound] : its CC50 reads > 200 µM

The compound `O=c1nc2oc(CCCCO)cc2cn1[C@H]1C[C@H](O)[C@@H](CO)O1` showed CC50 equal to > 200 µM

Form field CC50, entry `CCCCCCCCCCCCc1cc2cn([C@H]3C[C@H](O)[C@@H](CO)O3)c(=O)nc2[nH]1` : > 200 µM

Documented CC50 of `CCCCCCCCCCc1cc2cn([C@H]3C[C@H](O)[C@@H](CO)O3)c(=O)nc2o1` : > 50 µM

Briefly, CC50 measured for `CCCCCCc1cc2cn([C@H]3C[C@H](O)[C@@H](CO)O3)c(=O)nc2o1` : > 200 µM

# CC50 of `O=c1nc2oc(CCCO)cc2cn1[C@H]1C[C@H](O)[C@@H](CO)O1` = > 200 µM

Measured CC50 of `O=c1nc2oc(CCCCCCCCCO)cc2cn1[C@H]1C[C@H](O)[C@@H](CO)O1` : > 200 µM
